# TGT: Fc-fusion protein receptor ectodomain of BMPR-IB
# ASSAY PROCEDURE: SPR (Biacore T100), receptor ectodomain-Fc on protein G chip, kinetic 1:1 fit; measurement 2
OBSERVATION TYPE: pKd
Quick note: pKd values are minus log10 of concentrations in mol/L.

Worked examples, 3 binders total:
human GDF-5 mutant W417F (ligand) APLATRQGKRPSKNLKARCSRKALHVNFKDMGWDDFIIAPLEYEAFHCEGLCEFPLRSHLEPTNHAVIQTLMNSMDPESTPPTCCVPTRLSPISILFIDSANNVVYKQYEDMVVESCGCR : 10.34
recombinant human GDF-5 wild type (ligand) APLATRQGKRPSKNLKARCSRKALHVNFKDMGWDDWIIAPLEYEAFHCEGLCEFPLRSHLEPTNHAVIQTLMNSMDPESTPPTACVPTRLSPISILFIDSANNVVYKQYEDMVVESCGCR : 10.57
human GDF-5 mutant W417R (ligand) APLATRQGKRPSKNLKARCSRKALHVNFKDMGWDDRIIAPLEYEAFHCEGLCEFPLRSHLEPTNHAVIQTLMNSMDPESTPPTCCVPTRLSPISILFIDSANNVVYKQYEDMVVESCGCR : 10.43

Next binder, please.
// recombinant human GDF-5 mutant S439E (ligand) APLATRQGKRPSKNLKARCSRKALHVNFKDMGWDDWIIAPLEYEAFHCEGLCEFPLREHLEPTNHAVIQTLMNSMDPESTPPTCCVPTRLSPISILFIDSANNVVYKQYEDMVVESCGCR : pKd value = 10.37
